Study Target: Kit D816V kinase activity (Kit autophosphorylation at tyrosine 719) (Homo sapiens (Human), UniProt P10721, D816V/V560G)
Sequence (P10721 26-976 V560G/D816V): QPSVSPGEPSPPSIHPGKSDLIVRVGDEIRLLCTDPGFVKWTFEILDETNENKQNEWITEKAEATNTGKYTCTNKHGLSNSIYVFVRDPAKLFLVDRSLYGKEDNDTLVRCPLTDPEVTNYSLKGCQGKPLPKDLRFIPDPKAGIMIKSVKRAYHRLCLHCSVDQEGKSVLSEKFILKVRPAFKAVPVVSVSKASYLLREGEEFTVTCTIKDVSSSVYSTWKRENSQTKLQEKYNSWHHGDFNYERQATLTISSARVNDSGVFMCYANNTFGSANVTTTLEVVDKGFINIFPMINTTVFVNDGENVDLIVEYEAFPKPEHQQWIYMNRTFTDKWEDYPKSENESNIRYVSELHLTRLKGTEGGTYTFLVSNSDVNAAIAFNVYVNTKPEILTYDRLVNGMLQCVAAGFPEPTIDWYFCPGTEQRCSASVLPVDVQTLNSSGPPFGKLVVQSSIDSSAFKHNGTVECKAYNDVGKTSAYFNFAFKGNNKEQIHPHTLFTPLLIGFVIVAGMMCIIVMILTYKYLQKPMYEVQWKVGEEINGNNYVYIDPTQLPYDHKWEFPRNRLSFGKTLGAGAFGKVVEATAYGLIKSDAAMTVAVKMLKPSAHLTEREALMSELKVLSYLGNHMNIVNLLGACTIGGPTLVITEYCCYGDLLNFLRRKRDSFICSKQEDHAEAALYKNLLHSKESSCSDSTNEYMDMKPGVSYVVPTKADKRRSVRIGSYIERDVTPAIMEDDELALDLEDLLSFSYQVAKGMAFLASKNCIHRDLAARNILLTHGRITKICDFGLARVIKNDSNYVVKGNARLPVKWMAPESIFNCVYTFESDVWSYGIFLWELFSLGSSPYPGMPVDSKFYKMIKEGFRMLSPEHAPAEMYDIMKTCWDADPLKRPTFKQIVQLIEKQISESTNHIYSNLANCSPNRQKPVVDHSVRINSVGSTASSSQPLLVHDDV
Assay Method Text: HMC1.2 Autophosphorylation Assay (AlphaLISA phospho-Y719 c-Kit)
Recorded Metric: IC50

Problem: Would you kindly share the measured IC50 for COc1cc2c(N3CCN(c4ncc(Nc5ccc(C)cc5)cn4)CC3)ncnc2cc1OCCCN1CCCCC1 ?
Solution: 100 to 1000 nM

Problem: Item COc1cc2ncnc(N3CCN(c4ncc(Cc5ccccc5)cn4)CC3)c2cc1OCCCN1CCN(C)CC1 has what recorded IC50?
Solution: 100 to 1000 nM

Problem: Query: IC50; subject: COc1cc2ncnc(N3CCN(c4ncc(Cc5ccccc5)cn4)CC3)c2cc1OCC1CCNCC1
Solution: 10 to 100 nM

Problem: Find the recorded IC50 belonging to COc1cc2ncnc(N3CCN(c4ncc(Cc5ccccc5)cn4)CC3)c2cc1OCC1CNC1 and report it.
Solution: 10 to 100 nM

Problem: For c1ccc(Cc2cnc(N3CCN(c4ncnc5[nH]cnc45)CC3)nc2)cc1 , what is its reported IC50?
Solution: > 10000 nM

Problem: Query: IC50; subject: COc1cc2ncnc(N3CCN(c4ncc(Cc5ccccc5)c(O)n4)CC3)c2cc1OC
Solution: 100 to 1000 nM

Problem: Fill in the blank: the reported IC50 of COc1cc2c(N3CCN(c4ncc(Cc5ccccc5)cn4)CC3)ncnc2cc1OCCCN1CCN(C)CC1 is ____.
Solution: 10 to 100 nM

Problem: Look at this compound and give its reported IC50. COc1cc2ncnc(N3CCN(c4ncc(Cc5ccccc5)c(=O)[nH]4)CC3)c2cc1OCC1CNCCO1 (centres unmarked)
Solution: 1000 to 10000 nM
